Listing of recorded Ki by entry.
species: Rattus norvegicus; test: Displacement of [3H]TCP from PCP receptor in tissue preparation of whole rat brain minus cerebellum.
Metric: Ki (nM)

[[record]]
input_smiles = "CCCCCCCCC[C@]1(c2ccccc2)OC[C@H]([C@@H]2CCCCN2)O1"
unit_of_measurement = "nM"
result_comparator = "="
observed_measurement = 43000

[[record]]
input_smiles = "c1ccc([C@H]2OC[C@H]([C@@H]3CCCCN3)O2)cc1"
unit_of_measurement = "nM"
result_comparator = "="
observed_measurement = 25000

[[record]]
input_smiles = "c1ccc(C2(c3ccccc3)OC[C@@H]([C@@H]3CCCN3)O2)cc1"
unit_of_measurement = "nM"
result_comparator = "="
observed_measurement = 3300

[[record]]
input_smiles = "CCCN1CCCC[C@H]1[C@H]1COC(c2ccccc2)(c2ccccc2)O1"
unit_of_measurement = "nM"
result_comparator = "="
observed_measurement = 6800

[[record]]
input_smiles = "CC(C)[C@]1(c2ccccc2)OC[C@H]([C@@H]2CCCCN2)O1"
unit_of_measurement = "nM"
result_comparator = "="
observed_measurement = 45

[[record]]
input_smiles = "CCC1(CC)OC[C@H]([C@@H]2CCCCN2)O1"
unit_of_measurement = "nM"
result_comparator = "="
observed_measurement = 87000

[[record]]
input_smiles = "CCN[C@@H](C)[C@H]1COC(c2ccccc2)(c2ccccc2)O1"
unit_of_measurement = "nM"
result_comparator = "="
observed_measurement = 9000

[[record]]
input_smiles = "c1ccc(C2(c3ccccc3)OC[C@H]([C@@H]3CCCN3)O2)cc1"
unit_of_measurement = "nM"
result_comparator = ">"
observed_measurement = 10000

[[record]]
input_smiles = "CC[C@]1(c2ccccc2O)OC[C@H]([C@@H]2CCCCN2)O1"
unit_of_measurement = "nM"
result_comparator = "="
observed_measurement = 293

[[record]]
input_smiles = "CC[C@]1(c2ccccc2F)OC[C@H]([C@@H]2CCCCN2)O1"
unit_of_measurement = "nM"
result_comparator = "="
observed_measurement = 36

[[record]]
input_smiles = "CC[C@]1(c2cccc(O)c2)OC[C@H]([C@@H]2CCCCN2)O1"
unit_of_measurement = "nM"
result_comparator = "="
observed_measurement = 489

[[record]]
input_smiles = "C1=Cc2ccccc2C2(OC[C@H]([C@@H]3CCCCN3)O2)c2ccccc21"
unit_of_measurement = "nM"
result_comparator = "="
observed_measurement = 325

[[record]]
input_smiles = "c1ccc(C2(N3CCCCC3)CCCCC2)cc1"
unit_of_measurement = "nM"
result_comparator = "="
observed_measurement = 80

[[record]]
input_smiles = "CCC[C@]1(c2ccccc2)OC[C@H]([C@@H]2CCCCN2)O1"
unit_of_measurement = "nM"
result_comparator = "="
observed_measurement = 69

[[record]]
input_smiles = "CC[C@]1(c2ccccc2)OC[C@H]([C@@H]2CCCCN2)O1"
unit_of_measurement = "nM"
result_comparator = "="
observed_measurement = 107

[[record]]
input_smiles = "C[C@]1(c2ccccc2)OC[C@H]([C@@H]2CCCCN2)O1"
unit_of_measurement = "nM"
result_comparator = "="
observed_measurement = 847

[[record]]
input_smiles = "CC[C@]1(c2ccc(F)cc2)OC[C@H]([C@@H]2CCCCN2)O1"
unit_of_measurement = "nM"
result_comparator = "="
observed_measurement = 649

[[record]]
input_smiles = "c1ccc(CN2CCCC[C@H]2[C@H]2COC(c3ccccc3)(c3ccccc3)O2)cc1"
unit_of_measurement = "nM"
result_comparator = "="
observed_measurement = 10100

[[record]]
input_smiles = "c1ccc2c(c1)-c1ccccc1C21OC[C@H]([C@@H]2CCCCN2)O1"
unit_of_measurement = "nM"
result_comparator = "="
observed_measurement = 15500

[[record]]
input_smiles = "CC[C@]1(c2cccc(N=C=S)c2)OC[C@H]([C@@H]2CCCCN2)O1"
unit_of_measurement = "nM"
result_comparator = "="
observed_measurement = 590


###

organism: Rattus norvegicus; assay: Displacement of [3H]TCP from PCP receptor in tissue preparation of whole rat brain minus cerebellum.
pKi: −log10 of the molar value.
Metric: pKi

[[record]]
molecule = "NC[C@H]1COC(c2ccccc2)(c2ccccc2)O1"
result_comparator = "="
observed_measurement = 5.85

[[record]]
molecule = "c1ccc(C2(c3ccccc3)OCC(C3CCCCN3)CO2)cc1 (stereo not drawn)"
result_comparator = "<"
observed_measurement = 4.00

[[record]]
molecule = "c1ccc(C2(c3ccccc3)CCC(C3CCCCN3)C2)cc1 (single isomer, unassigned; 40a)"
result_comparator = "="
observed_measurement = 4.28


###

species on record: Rattus norvegicus; experiment: Displacement of [3H]TCP from PCP receptor in tissue preparation of whole rat brain minus cerebellum.
Categories are defined by ranges of Ki, namely c1 (below 0.7 µM), c2 (0.7 µM to below 7 µM), c3 (7 µM or more)

[[record]]
compound = "CC[C@]1(c2cccs2)OC[C@H]([C@@H]2CCCCN2)O1"
class_name = "c1"

[[record]]
compound = "CC[C@]1(c2ccsc2)OC[C@H]([C@@H]2CCCCN2)O1"
class_name = "c1"

[[record]]
compound = "CC[C@]1(c2cccc([N+](=O)[O-])c2)OC[C@H]([C@@H]2CCCCN2)O1"
class_name = "c2"

[[record]]
compound = "c1ccc(C2(c3ccccc3)CCC(C3CCCCN3)C2)cc1 (single isomer, unassigned; 40b)"
class_name = "c3"

[[record]]
compound = "CCC[C@H](N)[C@H]1COC(c2ccccc2)(c2ccccc2)O1"
class_name = "c2"

[[record]]
compound = "CC[C@]1(c2ccccc2Cl)OC[C@H]([C@@H]2CCCCN2)O1"
class_name = "c1"

[[record]]
compound = "CC[C@]1(c2ccc(O)cc2)OC[C@H]([C@@H]2CCCCN2)O1"
class_name = "c3"

[[record]]
compound = "CNC[C@H]1COC(c2ccccc2)(c2ccccc2)O1"
class_name = "c3"

[[record]]
compound = "CC[C@]1(c2cccc(Cl)c2)OC[C@H]([C@@H]2CCCCN2)O1"
class_name = "c1"

[[record]]
compound = "CCCCCCN1CCCC[C@H]1[C@H]1COC(c2ccccc2)(c2ccccc2)O1"
class_name = "c3"

[[record]]
compound = "CCCC[C@]1(c2ccccc2)OC[C@H]([C@@H]2CCCCN2)O1"
class_name = "c1"

[[record]]
compound = "CC[C@]1(c2ccc(Cl)cc2)OC[C@H]([C@@H]2CCCCN2)O1"
class_name = "c2"

[[record]]
compound = "CCNC[C@H]1COC(c2ccccc2)(c2ccccc2)O1"
class_name = "c3"

[[record]]
compound = "C=CCN1CCCC[C@H]1[C@H]1COC(c2ccccc2)(c2ccccc2)O1"
class_name = "c3"

[[record]]
compound = "CN1CCCC[C@H]1[C@H]1COC(c2ccccc2)(c2ccccc2)O1"
class_name = "c2"

[[record]]
compound = "CC[C@]1(c2cccc(N)c2)OC[C@H]([C@@H]2CCCCN2)O1"
class_name = "c2"

[[record]]
compound = "C[C@H](N)[C@H]1COC(c2ccccc2)(c2ccccc2)O1"
class_name = "c1"


###

List of Ki values.
organism: Rattus norvegicus; experiment: Displacement of [3H]TCP from PCP receptor in tissue preparation of whole rat brain minus cerebellum.
Metric: Ki (µM)

[[record]]
input_smiles = "CCC[C@H](NC)[C@H]1COC(c2ccccc2)(c2ccccc2)O1"
unit_of_measurement = "µM"
observed_measurement = 7

[[record]]
input_smiles = "CCN1CCCC[C@H]1[C@H]1COC(c2ccccc2)(c2ccccc2)O1"
unit_of_measurement = "µM"
observed_measurement = 6.9

[[record]]
input_smiles = "CN[C@@H](C)[C@H]1COC(c2ccccc2)(c2ccccc2)O1"
unit_of_measurement = "µM"
observed_measurement = 0.703

